Hello, the source for this data is patent US10316049B2, in case you need it.

- TARGET: TBK1 (Homo sapiens)
- Construct: TBK1 and IKKε were expressed and purified as full length recombinant proteins
- Sequence (Q9UHD2 1-729): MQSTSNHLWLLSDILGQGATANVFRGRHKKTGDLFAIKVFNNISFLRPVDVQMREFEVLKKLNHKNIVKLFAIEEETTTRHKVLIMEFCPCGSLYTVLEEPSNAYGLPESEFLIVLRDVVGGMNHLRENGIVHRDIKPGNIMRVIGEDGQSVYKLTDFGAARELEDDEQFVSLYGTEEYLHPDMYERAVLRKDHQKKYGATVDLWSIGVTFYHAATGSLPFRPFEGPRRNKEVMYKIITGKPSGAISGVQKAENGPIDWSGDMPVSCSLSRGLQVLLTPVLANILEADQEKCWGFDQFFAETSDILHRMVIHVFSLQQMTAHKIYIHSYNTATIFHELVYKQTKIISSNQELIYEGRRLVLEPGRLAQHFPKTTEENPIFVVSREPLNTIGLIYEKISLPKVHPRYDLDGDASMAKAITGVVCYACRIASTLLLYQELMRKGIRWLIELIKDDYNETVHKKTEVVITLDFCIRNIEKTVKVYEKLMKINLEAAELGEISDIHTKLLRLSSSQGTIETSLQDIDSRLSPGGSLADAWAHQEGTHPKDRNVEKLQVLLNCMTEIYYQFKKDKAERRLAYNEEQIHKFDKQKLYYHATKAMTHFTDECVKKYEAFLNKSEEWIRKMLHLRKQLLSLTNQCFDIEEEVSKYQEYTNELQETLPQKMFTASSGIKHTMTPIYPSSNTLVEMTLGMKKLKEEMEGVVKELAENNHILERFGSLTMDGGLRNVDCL
- TEST: TR-FRET enzymatic activity assay, TBK1; further: full length recombinant TBK1 at 2.5 nM
ENDPOINT_NAME: pIC50
Keep in mind that pIC50 stands for -log10 of concentration in molar terms.

Check out these entries, answers already filled in.
Exercise: Which pIC50 value is on record for "N#Cc1cc(-c2ccnc(NC(=O)C3CC3)c2)ncc1O[C@H]1CCN(C(=O)CO)C[C@H]1F" ?
Key: 7.06

Exercise: Which pIC50 value is on record for Cn1cc([C@@H]2C[C@H]2C(=O)Nc2cc(-c3ccc(OC4CCOCC4)c(C#N)c3)ccn2)cn1 (relative stereo) ?
Key: 7.54

Exercise: Which pIC50 value is on record for "N#Cc1cc(-c2ccnc(NC(=O)[C@H]3C[C@@H]3F)c2)ccc1O[C@H]1CCN(C(=O)CO)C[C@H]1F" ?
Key: 7.80

Exercise: Which pIC50 value is on record for N#Cc1cc(-c2ccnc(NC(=O)[C@H]3C[C@@H]3c3cccnc3)c2)ccc1OC1CCOCC1 (relative stereo) ?
Key: 7.69

Exercise: Which pIC50 value is on record for "N#Cc1cc(-c2cc(NC(=O)[C@@H]3C[C@H]3c3cccnc3)ncn2)ccc1O[C@H]1CCN(C(=O)CO)C[C@H]1F" ?
Key: 7.80

Exercise: Which pIC50 value is on record for "N#Cc1cc(-c2ccnc(NC(=O)C3CC3)c2)ccc1O[C@H]1CCN(C(=O)[C@@H](O)CO)CC1(F)F" ?
Key: 8.36

***
Exercise: Which pIC50 value is on record for N#Cc1cc(-c2ccnc(NC(=O)[C@@H]3C[C@H]3c3cccnc3)c2)ccc1O[C@H]1CCN(C(=O)CO)CC1(F)F [Example 134] ?
Key: 8.13

Exercise: Which pIC50 value is on record for "N#Cc1cc(-c2cc(NC(=O)C3CC3)ncc2F)ccc1OC1CCOCC1" ?
Key: 7.36

Exercise: Which pIC50 value is on record for CCC[C@H]1C[C@@H]1C(=O)Nc1cc(-c2ccc(OC3CCOCC3)c(C#N)c2)ccn1 (relative stereo) ?
Key: 7.36

Exercise: Which pIC50 value is on record for "N#Cc1cc(-c2ccnc(NC(=O)C3CC3)c2)ccc1O[C@H]1CCN(C(=O)CO)CC1(F)F" ?
Key: 8.38

Exercise: Which pIC50 value is on record for N#Cc1cc(-c2ccnc(NC(=O)[C@@H]3C[C@H]3c3cccnc3)c2)ccc1O[C@H]1CCN(C(=O)CO)C[C@H]1F (relative stereo) [Example 127] ?
Key: 7.91

Exercise: Which pIC50 value is on record for "N#Cc1cc(-c2cc(NC(=O)C3CC3)ncn2)ccc1O[C@H]1CCN(C(=O)c2nnc[nH]2)C[C@H]1F" ?
Key: 8.10

Exercise: Which pIC50 value is on record for "N#Cc1cc(-c2ccnc(NC(=O)C3CC3)c2)ccc1O[C@H]1CCN(C(=O)CCO)CC1(F)F" ?
Key: 7.63
